Tested on: NO production in RAW 264.7 mouse macrophages stimulated by lipopolysaccharide (LPS)
Assay: Inhibitory assay of NO production (Griess) in LPS-stimulated RAW264.7 cells
Format: cell-based
Settings: Mus musculus, RAW264.7, 24 h, read-out: Produced NO %
Parameter activity at 30 µM: see the listing below.

| COMPOUND | UNITS_OF_MEASURE | activity at 30 µM |
| --- | --- | --- |
| CO[C@H]1C[C@]2(C)CC[C@]3(C)[C@H](CC[C@@H]4[C@@]5(C)CC[C@H](OC(C)=O)C(C)(C)[C@@H]5CC[C@]43C)[C@@]23O[C@@]13C(C)C | % | 95.7 |
| CC(=O)O[C@H]1CC[C@]2(C)[C@H]3CC[C@@]4(C)[C@H]([C@H](C)CCC=C(C)C)CC[C@]4(C)C3=CC(=O)[C@H]2C1(C)C | % | 93.1 |
| C=C(C)[C@@H]1CC[C@]2(CO)CC[C@]3(C)[C@H](CC[C@@H]4[C@@]5(C)CC[C@H](O)C(C)(C)[C@@H]5CC[C@]43C)[C@@H]12 | % | 36.3 |
| CC(=O)O[C@H]1CC[C@]2(C)[C@H]3CC[C@@H]4C5=C(C(C)C)C(=O)C[C@]5(C)CC[C@@]4(C)[C@]3(C)CC[C@H]2C1(C)C [Compound 5, 21-oxolup-18-en-3β-yl acetate] | % | 92.7 |
| CC(C)=CCC[C@@H](C)[C@@H]1CC[C@]2(C)C3=CC[C@H]4C(C)(C)C(=O)CC[C@]4(C)[C@H]3CC[C@@]12C | % | 108 |
| C=C(C)C(=O)CC[C@@H](C)[C@@H]1CC[C@]2(C)C3=CC[C@H]4C(C)(C)[C@@H](OC(C)=O)CC[C@]4(C)[C@H]3CC[C@@]12C | % | 37 |
| CC(=O)O[C@H]1CC[C@]2(C)[C@H]3CC[C@@H]4[C@@]56O[C@]5(C(C)C)[C@@H](O)C[C@]6(C)CC[C@@]4(C)[C@]3(C)CC[C@H]2C1(C)C | % | 35.4 |

---

System: NO production in RAW 264.7 mouse macrophages stimulated by lipopolysaccharide (LPS)
Assay: Inhibitory assay of NO production (Griess) in LPS-stimulated RAW264.7 cells
Type: cell-based
Settings: Mus musculus, RAW264.7, 24 h, read-out: IC50 (inhibition of NO production)
pIC50: −log10 of the molar value.
Parameter pIC50: see the listing below.

| COMPOUND | SIGN_QUALIFIER | pIC50 |
| --- | --- | --- |
| C=C(C)[C@@H]1CC[C@]2(CO)CC[C@]3(C)[C@H](CC[C@@H]4[C@@]5(C)CC[C@H](O)C(C)(C)[C@@H]5CC[C@]43C)[C@@H]12 [Compound 6, betulin] | = | 4.77 |
| CO[C@H]1C[C@]2(C)CC[C@]3(C)[C@H](CC[C@@H]4[C@@]5(C)CC[C@H](OC(C)=O)C(C)(C)[C@@H]5CC[C@]43C)[C@@]23O[C@@]13C(C)C [Compound 1] | < | 4.52 |
| CC(=O)O[C@H]1CC[C@]2(C)[C@H]3CC[C@@H]4[C@@]56O[C@]5(C(C)C)[C@@H](O)C[C@]6(C)CC[C@@]4(C)[C@]3(C)CC[C@H]2C1(C)C [Compound 4] | = | 4.77 |

---

Parameter IC50: see the listing below.
Test system: NO production in RAW 264.7 mouse macrophages stimulated by lipopolysaccharide (LPS)
Assay: Inhibitory assay of NO production (Griess) in LPS-stimulated RAW264.7 cells
Format: cell-based
Settings: Mus musculus, RAW264.7, 24 h, read-out: IC50 (inhibition of NO production)

| COMPOUND | IC50 |
| --- | --- |
| CC(=O)O[C@H]1CC[C@]2(C)[C@H]3CC[C@@H]4C5=C(C(C)C)C(=O)C[C@]5(C)CC[C@@]4(C)[C@]3(C)CC[C@H]2C1(C)C [Compound 5, 21-oxolup-18-en-3β-yl acetate] | > 30 µM |
| CC(C)=CCC[C@@H](C)[C@@H]1CC[C@]2(C)C3=CC[C@H]4C(C)(C)C(=O)CC[C@]4(C)[C@H]3CC[C@@]12C | > 30 µM |
| C=C(C)C(=O)CC[C@@H](C)[C@@H]1CC[C@]2(C)C3=CC[C@H]4C(C)(C)[C@@H](OC(C)=O)CC[C@]4(C)[C@H]3CC[C@@]12C | 18.4 µM |
| CC(=O)O[C@H]1CC[C@]2(C)[C@H]3CC[C@@]4(C)[C@H]([C@H](C)CCC=C(C)C)CC[C@]4(C)C3=CC(=O)[C@H]2C1(C)C | > 30 µM |
